Origin of the recorded values: paper PMC6156755

assay: Caco-2 permeability assay with pH 7.4 buffer or human plasma in both chambers; conditions: human, Caco-2, pH 7.4, Papp B-A, buffer pH 7.4 in both chambers
readout: Papp B→A (×10⁻⁶ cm/s)
Numbers only; they are read as ×10⁻⁶ cm/s.

What the record says about COC(=O)c1ccccc1-c1c2ccc(=N)cc-2oc2cc(N)ccc12 : Papp B→A is 9.7

What the record says about CCN(CC)Cc1cc(Nc2ccnc3cc(Cl)ccc23)ccc1O : Papp B→A is 7.1

What the record says about CC(C)NCC(O)COc1cccc2ccccc12 (stereo not shown) : Papp B→A is 52

What the record says about CC(C)(C)NC(=O)[C@@H]1C[C@@H]2CCCC[C@@H]2CN1C[C@@H](O)[C@H](Cc1ccccc1)NC(=O)[C@H](CC(N)=O)NC(=O)c1ccc2ccccc2n1 : Papp B→A is 34

What the record says about OC(c1cc(C(F)(F)F)nc2c(C(F)(F)F)cccc12)C1CCCCN1 (stereo not shown) : Papp B→A is 4.7

What the record says about C[C@H]1O[C@@H](O[C@H]2[C@@H](O)C[C@H](O[C@H]3[C@@H](O)C[C@H](O[C@H]4CC[C@@]5(C)[C@H](CC[C@@H]6[C@@H]5C[C@@H](O)[C@]5(C)[C@@H](C7=CC(=O)OC7)CC[C@]65O)C4)O[C@@H]3C)O[C@@H]2C)C[C@H](O)[C@@H]1O [^3H-Digoxin, [^3H(G)]-digoxin] : Papp B→A is 18

What the record says about OC[C@@H](O)[C@@H](O)[C@H](O)[C@H](O)CO [^14C-Mannitol, D-[1-^14C]-mannitol] : Papp B→A is 0.56
